Below, each entry is listed alongside its reported TGI.
# Test system: SF-268 CNS
# PROTOCOL_NOTES: NCI tumour cell line growth inhibition, 48 h

{"COMPOUND": "CC(C)(C)c1cc(/C=C(\\C#N)C(=O)NCCO)cc(C(C)(C)C)c1O", "TGI": "> 100 µM"}

Dear colleague, I am looking for the recorded TGI of the following compound: CCOc1cc2c(Cl)ncnc2c(OCC)c1OCC 7.9 µM

###

# System: PC-3 prostate
# PROTOCOL_NOTES: NCI tumour cell line growth inhibition, 48 h
Below, each entry is listed alongside its reported TGI.

{"MOLECULE": "CCOC(=O)C(NC(=O)CC(C)C)(N1CCN(c2cc3c(cc2F)c(=O)c(C(=O)O)cn3C2CC2)CC1)C(F)(F)F (centres undefined)", "PARAMETER": "TGI", "RESULT": "63.7 µM"}
{"MOLECULE": "CC1=CC(=Nc2ccc(N(CCCl)CCCl)cc2)C=C(C)C1=O", "PARAMETER": "TGI", "RESULT": "7.08 µM"}
{"MOLECULE": "O=c1oc2cc(O)ccc2c(O)c1C(c1ccc(C(c2c(O)c3ccc(O)cc3oc2=O)c2c(O)c3ccc(O)cc3oc2=O)cc1)c1c(O)c2ccc(O)cc2oc1=O", "PARAMETER": "TGI", "RESULT": "> 100 µM"}
{"MOLECULE": "COc1ccc(-c2c(C#N)c(N)nc3c2CCS(=O)(=O)c2ccccc2-3)cc1", "PARAMETER": "TGI", "RESULT": "> 100 µM"}
{"MOLECULE": "Cc1nn(-c2cc(Cl)ccc2[N+](=O)[O-])c(C)c1Cl", "PARAMETER": "TGI", "RESULT": "> 100 µM"}

Dear colleague, I am looking for the recorded TGI of the following molecule: NC(N)=NS(=O)(=O)c1ccc(NC(=O)c2ccc3nc4ccccc4c(Nc4ccc(S(=O)(=O)N=C(N)N)cc4)c3c2)cc1 > 100 µM

Dear colleague, I am looking for the recorded TGI of the following molecule: Oc1ccc2ccccc2c1N=Nc1nccs1 > 66.1 µM

Dear colleague, I am looking for the recorded TGI of the following molecule: c1ccc(/C(=N/Nc2ccccn2)c2ncccn2)cc1 > 100 µM

Dear colleague, I am looking for the recorded TGI of the following molecule: CC1CC(=O)Nc2nc3ccccc3n21 (centres undefined) > 100 µM
